molecular target: T1, HLA-A2 on T2 cells pulsed with NY-ESO-1:157-165, wt peptide (C165) (human); test: flow cytometry, peptide-pulsed T2 cells
T1 construct: also called T2 Pulsed NY-ESO-1_157-165
Quantity name: EC50 (nM)
Kindly provide the numeric value in nM only, without the unit symbol.

Field: example entries. Status: answers known.
1. mAb28037P2 (antibody, human IgG4 S228P, kappa, V domains shown) VH: QVQLQESGPGLVKPSETLSLTCTVSGDSISVYYWTWIRQPPGKGLEWIGYVHYTGYTNYNPSLKSRVTMSVDTAKKQISLKVRSVTAADTAVYYCARTIPAAAHYYHGTDVWGPGTTVTVSS VL: DIQMTQSPSSLSASVGDRVTITCQANQDIRKYLNWYQQKSGKAPTLLIYEASNLETGAPSTFSGSGSGTEFTFTISSLRPEDIATYYCQQYESLPLTFGGGTKVEIKR | 0.78
2. mAb28128P (antibody, human IgG4 S228P, kappa, V domains shown) VH: EVQLVESGGGVVQPGGSLRLSCAASGFIFDDYAMHWVRQVPGKGLEWISLSSGGGGGTYYADPVKGRFTISRDNSKNSLHLQMNSLRAEDTASYYCAKDMVFGVVTPDFFFAMDVWGQGTTVTVSS VL: DIQMTQSPSSLSASVGDRVTITCRASQSISTYLNWYQQKPGKAPKLLIYGASSLQRGVPSRFSGSGSGTDFTLTISSLQPEDFATYYCQQTYSTPPITFGQGTRLEIKR | 0.32

Answer with the recorded EC50 for the binder listed here: mAb29814P (antibody, human IgG4 S228P, kappa, V domains shown) VH: QVQLVESGGGVVQPGRSLRLSCVASGFTFSSYGMHWVRQAPGKGLEWVAVIWYVGSNKYYGDSVKGRFTISRDNSKNTLYLQMNSLRAEDTAVYYCARDLIADRPGYYYNGMDVWGQGTTVTVSS VL: EIVMTQSPVTLFVSPGERATLSCRASQSVNTNLAWYQQQPGQAPRLLIHGASTRPTGVPARFSGSGSGTEFTLIISSLQSEDFAVYYCQQYNNWPPWTFGQGTKVEIKR
1.1

Answer with the recorded EC50 for the binder listed here: mAb28105P (antibody, human IgG4 S228P, kappa, V domains shown) VH: EVQLVESGGGVVQPGGSLRLSCEASGFIFDDYAMHWVRQAPGKGLEWVSLISGDGDIIYYADSVKGRFTISRDNSKNSLYLQMNSLIIEDTALYYCAKDWVFGVVMTHYWYFGLDVWGQGTTVTVSS VL: DIQMTQSPSSLSASEGDRVTITCRASQSISTYLNWYQQKPGKAPKLLIYGASSLQSGVPSRFSGSGSGTDFTLTISSLQPEDFATYYCQQSYSTPPITFGQGTKVEIKR
1.8

Answer with the recorded EC50 for the binder listed here: mAb28042P (antibody, human IgG4 S228P, kappa, V domains shown) VH: QLQLQESDPGLVKPSETLSLTCTVSGDSIRNSNYYWGWIRQPPGKGLEWIGSIYFSGRTYFNPSLKSRVTIPVDMSKNQFSLMLNSVTATDTAVYYCARHGGITAAGGFFDYWGQGTLVTVSS VL: DIQMTQSPSSLSASVGDRVTITCQASQDISNYLNWYQQKPGKAPNVLIYDASNLETGVPSRFSGSGSGTDFTFTISSLQPEDFATYYCQQNDNLPLTFGGGTKVEIKR
1.6
